- System: pTau
- test.method.notes: pTau assay (method not described)
- Type: cell-based
- condition.details: read-out: pTau
attribute.measured: IC50 (nM)

Use the examples below as a reference point.
molecule: C=C(C)c1ccncc1NC(=O)c1ccnc(NC(=O)C2CC2)c1
measured.result: 80

molecule: CC1(C)COCCN1c1ccncc1NC(=O)c1ccnc(NC(=O)C2CC2)c1
measured.result: 0.4

molecule: CC(=O)c1ccncc1NC(=O)c1ccnc(NC(=O)C2CC2)c1
measured.result: 76

molecule: O=C(Nc1cnccc1-c1ccc(I)cc1)c1ccnc(NC(=O)C2CC2)c1
measured.result: 170

molecule: O=C(Nc1cncc(-c2ccc(Cl)cc2Cl)c1)c1ccnc(NC(=O)C2CC2)c1
measured.result: 620

P: O=C(Nc1cnccc1-c1ccccc1)c1ccnc(NC(=O)C2CC2(F)F)c1 (centres unmarked)
Q: CC(C)n1cc(NC(=O)c2ccnc(NC(=O)C3CC3)c2)cn1
(Q) Could you tell me which of P and Q has the lower IC50 reading? Reply briefly: the label of your chosen item.
(A) P
(P: 1400 nM, Q: 4000 nM)

a: O=C(Nc1cncc(-c2cccc(OC(F)F)c2)c1)c1ccnc(NC(=O)C2CC2)c1
b: CC(C)C(=O)Nc1cc(C(=O)Nc2cnc(F)cc2OCC(F)F)ccn1
(Q) Could you tell me which of a and b has the lower IC50 reading? Reply briefly: the label of your chosen item.
(A) b
(b: 210 nM, a: 670 nM)

A: O=C(Nc1cncc(-c2ccccc2C(F)(F)F)c1)c1ccnc(NC(=O)C2CC2)c1
B: Cc1cc(NC(=O)c2ccnc(NC(=O)C3CC3)c2)cnc1F
(Q) Could you tell me which of A and B has the lower IC50 reading? Reply briefly: the label of your chosen item.
(A) A

1: O=C(Nc1cnccc1-c1ccccc1)c1ccnc(NC(=O)[C@H]2C[C@H](O)C2)c1
2: O=C(Nc1cnn(CC(F)(F)F)c1)c1ccnc(NC(=O)C2CC2)c1
3: COc1ccc(-c2ccncc2NC(=O)c2ccnc(NC(=O)C3CC3)c2)c(F)c1
4: CC(C)C(=O)Nc1cc(C(=O)Nc2cncc(-c3ccccc3Cl)c2)ccn1
5: O=C(Nc1c(-c2ccccc2)ncc2ccccc12)c1ccnc(NC(=O)C2CC2)c1
(Q) Put these in order: smallest IC50 first, largest last. # format: label list in the order the request specifies
(A) 3, 4, 1, 2, 5
(3: 31 nM, 4: 107 nM, 1: 450 nM, 2: 700 nM, 5: 4100 nM)

P: O=C(Nc1cnccc1-c1ccc(C(F)(F)F)cc1)c1ccnc(NC(=O)C2CC2)c1
Q: O=C(Nc1cnccc1-c1ccncc1)c1ccnc(NC(=O)C2CC2)c1
R: O=C(Nc1cnccc1I)c1ccnc(NC(=O)C2CC2)c1
S: CN(C)Cc1ccccc1-c1cncc(NC(=O)c2ccnc(NC(=O)C3CC3)c2)c1
T: Cc1ccc(NC(=O)c2ccnc(NC(=O)C3CC3)c2)cn1
(Q) Put these in order: smallest IC50 first, largest last. # format: label list in the order the request specifies
(A) R, P, Q, S, T
(R: 35 nM, P: 230 nM, Q: 670 nM, S: 1400 nM, T: 2200 nM)

I: O=C(Nc1cncc(-c2ccccc2F)n1)c1ccnc(NC(=O)C2CC2)c1
II: O=C(Nc1cnccc1-c1ccc(Cl)cc1)c1ccnc(NC(=O)C2CC(F)C2)c1 (single isomer, unassigned) [Example 222]
III: O=C(Nc1cncc(-n2cccn2)c1)c1ccnc(NC(=O)C2CC2)c1
IV: Cc1ncc(NC(=O)c2ccnc(NC(=O)C3CC3)c2)s1
(Q) Sort the 4 molecules by IC50; largest first, smallest last. # format: label list in the order the request specifies
(A) IV, III, I, II

---

- Test system: pTau
- test.method.notes: pTau assay (method not described)
- Format: cell-based
- condition.details: read-out: pTau
attribute.measured: IC50 (nM)

Use the examples below as a reference point.
molecule: COc1cccc(-c2cncc(NC(=O)c3ccnc(NC(=O)C4CC4)c3)c2)n1 [Example 164]
unit.of.measurement: nM
IC50: 270

molecule: CC(C)C(=O)Nc1cc(C(=O)Nc2cnccc2N2CCC(F)(F)CC2)c(F)cn1 [Example 206]
unit.of.measurement: nM
IC50: 190

molecule: O=C(Nc1cncc(-c2cncc(F)c2)c1)c1ccnc(NC(=O)C2CC2)c1 [Example 161]
unit.of.measurement: nM
IC50: 175

P: O=C(Nc1cnccc1-c1ccc(OC(F)(F)F)cc1F)c1ccnc(NC(=O)C2CC2)c1 [Example 94]
Q: CC(=O)Nc1ccc(NC(=O)c2ccnc(NC(=O)C3CC3)c2)cn1 [Example 4]
R: CC(C)C(=O)Nc1cc(C(=O)Nc2cnccc2C(F)c2ccccc2)ccn1 (stereo not drawn) [Example 199]
S: O=C(Nc1cncnc1N1CCC(F)(F)CC1)c1ccnc(NC(=O)C2CC2)c1 [Example 179]
T: O=C(Nc1cncc(-c2ccccc2)c1)c1ccnc(NC(=O)C2CCC(F)(F)C2)c1 (stereo not drawn) [Example 233]
(Q) Put these in order: smallest IC50 first, largest last. # format: label list in the order the request specifies
(A) P, T, R, S, Q
(P: 120 nM, T: 340 nM, R: 720 nM, S: 3000 nM, Q: 7200 nM)

---

- Test system: pTau
- test.method.notes: pTau assay (method not described)
- Type: cell-based
- condition.details: read-out: pTau
pIC50: −log10 of the molar value.
attribute.measured: pIC50

smiles.input: O=C(Nc1cncc(-c2cccc(N3CCOCC3)c2)c1)c1ccnc(NC(=O)C2CC2)c1
attribute.measured: pIC50
measured.result: 6.38

1: O=C(Nc1cnccc1-c1ccc(Br)cc1)c1ccnc(NC(=O)C2CC2)c1
2: N#Cc1ccc(-c2cncc(NC(=O)c3ccnc(NC(=O)C4CC4)c3)c2)cc1
(Q) API: POST /compare with 1 and 2 ; response names the item with higher pIC50. Reply briefly: the label of your chosen item.
(A) 1
(1: 6.62, 2: 6.11)

---

- tested.target: GSK3β (Homo sapiens, UniProt P49841)
- Sequence (P49841 whole entry, species assumed): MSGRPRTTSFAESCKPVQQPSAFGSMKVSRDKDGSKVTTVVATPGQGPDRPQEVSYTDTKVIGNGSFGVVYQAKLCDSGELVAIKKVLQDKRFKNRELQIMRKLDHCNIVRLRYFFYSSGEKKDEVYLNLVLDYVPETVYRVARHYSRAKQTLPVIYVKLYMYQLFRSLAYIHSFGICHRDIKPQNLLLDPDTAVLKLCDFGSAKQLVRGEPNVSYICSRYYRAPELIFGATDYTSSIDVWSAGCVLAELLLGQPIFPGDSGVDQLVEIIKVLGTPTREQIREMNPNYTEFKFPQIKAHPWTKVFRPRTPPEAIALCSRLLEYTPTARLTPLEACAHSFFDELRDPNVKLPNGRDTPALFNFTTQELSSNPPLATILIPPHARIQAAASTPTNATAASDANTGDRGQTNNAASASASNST
- test.method.notes: GSK3β kinase assay (Caliper LabChip3000, fluoresceinated peptide substrate)
- Assay type: biochemical
- condition.details: first value of the cell; 250 pM enzyme, 20 uM ATP, 20 hours at room temperature; read-out: GSK3β/α (nM): GSK3β IC50
attribute.measured: IC50 (nM)

Use the examples below as a reference point.
molecule: O=C(Nc1cncc(-n2cccn2)c1)c1ccnc(NC(=O)C2CC2)c1
unit.of.measurement: nM
IC50: 1.5
--
molecule: CC(C)C(=O)Nc1cc(C(=O)Nc2cnc(F)cc2OCC(F)F)ccn1
unit.of.measurement: nM
IC50: 2.7
--
molecule: O=C(Nc1cnccc1-c1ccc(C(F)(F)F)cc1)c1ccnc(NC(=O)C2CC2)c1
unit.of.measurement: nM
IC50: 13

I: CC(C)C(=O)Nc1cc(C(=O)Nc2cncc(C(O)c3ccccc3)c2)ccn1 (centres unmarked)
II: CC(C)C(=O)Nc1cc(C(=O)Nc2cnccc2C(F)(F)c2ccccc2)ccn1
III: O=C(Nc1cncc(-c2cccc(F)n2)c1)c1ccnc(NC(=O)C2CC2)c1
IV: O=C(Nc1cnccc1-c1ccc(C(F)(F)F)cc1Cl)c1ccnc(NC(=O)C2CC2)c1
(Q) Put these in order: smallest IC50 first, largest last. # format: label list in the order the request specifies
(A) III, IV, I, II

---

- tested.target: GSK3α (Homo sapiens, UniProt P49840)
- Sequence (P49840 whole entry, species assumed): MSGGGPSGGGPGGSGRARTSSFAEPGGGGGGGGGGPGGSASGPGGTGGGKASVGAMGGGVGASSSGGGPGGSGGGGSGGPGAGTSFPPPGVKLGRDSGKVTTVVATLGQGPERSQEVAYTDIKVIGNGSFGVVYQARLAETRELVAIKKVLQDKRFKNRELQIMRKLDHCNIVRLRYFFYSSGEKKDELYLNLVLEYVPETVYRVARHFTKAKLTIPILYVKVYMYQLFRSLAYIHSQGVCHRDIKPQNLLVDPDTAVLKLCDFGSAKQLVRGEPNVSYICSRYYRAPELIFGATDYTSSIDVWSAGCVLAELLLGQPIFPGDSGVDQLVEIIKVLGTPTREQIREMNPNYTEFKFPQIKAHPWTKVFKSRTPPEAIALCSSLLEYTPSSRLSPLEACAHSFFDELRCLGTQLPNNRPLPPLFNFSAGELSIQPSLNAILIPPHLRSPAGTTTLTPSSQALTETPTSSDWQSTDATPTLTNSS
- test.method.notes: biochemical
- condition.details: second value of the cell; 250 pM enzyme, 20 uM ATP, 20 hours at room temperature; read-out: GSK3β/α (nM): GSK3α IC50
attribute.measured: IC50 (nM)

smiles.input: O=C(Nc1c(-c2ccccc2)ncc2ccccc12)c1ccnc(NC(=O)C2CC2)c1
measured.result: 56

smiles.input: COc1ccnc(-c2ccccc2)c1NC(=O)c1ccnc(NC(=O)C2CC2)c1
measured.result: 4.8

smiles.input: O=C(Nc1cncc(-c2ccnc(F)c2F)c1)c1ccnc(NC(=O)C2CC2)c1
measured.result: 11

smiles.input: C[C@@H]1CN(c2ccncc2NC(=O)c2ccnc(NC(=O)C3CC3)c2)C[C@H](C)O1
measured.result: 5.5

smiles.input: O=C(Nc1cncc(-c2ccsc2)c1)c1ccnc(NC(=O)C2CC2)c1
measured.result: 1.9

I: Cn1c(-c2ccncc2NC(=O)c2ccnc(NC(=O)C3CC3)c2)cc2ccccc21
II: O=C(Nc1cnccc1-c1cc(Cl)ccc1F)c1ccnc(NC(=O)C2CC2)c1
III: CC(C)C(=O)Nc1cc(C(=O)Nc2cncc(-c3ccccc3F)n2)ccn1
IV: O=C(Nc1cncc(C(F)(F)F)c1)c1ccnc(NC(=O)C2CC2)c1
V: C=C(c1ccccc1)c1ccncc1NC(=O)c1ccnc(NC(=O)C(C)C)c1
(Q) Put these in order: smallest IC50 first, largest last. # format: label list in the order the request specifies
(A) III, I, V, IV, II

I: O=C(Nc1cncc2ccccc12)c1ccnc(NC(=O)C2CCCC2)c1
II: CC(C)C(=O)Nc1cc(C(=O)Nc2cnccc2OCC2(C)CC2)ccn1
III: O=C(Nc1cnccc1-c1ccc(C(F)(F)F)cc1)c1ccnc(NC(=O)C2CC2)c1
IV: O=C(Nc1cnccc1N1CCCCCC1)c1ccnc(NC(=O)C2CC2)c1
(Q) Put these in order: smallest IC50 first, largest last. # format: label list in the order the request specifies
(A) II, I, III, IV
(II: 0.4 nM, I: 1.1 nM, III: 8.4 nM, IV: 14 nM)

a: O=C(Nc1cnccc1N1CCCC(F)(F)C1)c1ccnc(NC(=O)C2CC2)c1
b: CC(C)C(=O)Nc1cc(C(=O)Nc2cnccc2C(=O)c2ccccc2)ccn1
(Q) Could you tell me which of a and b has the lower IC50 reading? Reply briefly: the label of your chosen item.
(A) a
(a: 0.46 nM, b: 5.9 nM)

1: O=C(Nc1cncc(-n2cccn2)c1)c1ccnc(NC(=O)C2CC2)c1
2: O=C(Nc1cncc(-c2ccccc2F)n1)c1ccnc(NC(=O)C2CC2)c1
(Q) API: POST /compare with 1 and 2 ; response names the item with higher IC50. Reply briefly: the label of your chosen item.
(A) 2
(2: 1.2 nM, 1: 0.74 nM)

The origin of these recorded values is patent US9809573B2.
